- test_system: T1, nonsulfated human anionic trypsin purified from E. coli (human, UniProt P07478 24-247)
- T1 construct: human anionic trypsin, the active enzyme cut from anionic trypsinogen (Hu2) by enteropeptidase; Not sulfated on Tyr154; also called Hu2 (E. coli); Hu2
- T1 sequence (P07478 24-247): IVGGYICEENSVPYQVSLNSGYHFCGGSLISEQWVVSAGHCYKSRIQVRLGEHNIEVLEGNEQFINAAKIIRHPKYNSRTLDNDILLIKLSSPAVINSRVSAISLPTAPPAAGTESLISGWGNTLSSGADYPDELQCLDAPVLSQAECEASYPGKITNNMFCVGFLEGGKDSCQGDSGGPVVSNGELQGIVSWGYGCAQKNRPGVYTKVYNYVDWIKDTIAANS
- protocol_text: KD calculated from the rate constants (association and dissociation rate assays); KD(calc): equilibrium dissociation constant calculated from kon and koff of the activity-based rate assays
- assay_conditions: both partners purified
Catalogue of binders with associated Kd
Output spec: scalar in pM, unitless text.

binder	measured_property	value_measured
SPINK1 variant N34S, C-terminal 10His tag (natural protein, human, UniProt P00995 24-79, looked up, also called SPINK1 N34S; p.N34S; source: HEK 293T, transfected, purified from conditioned medium (nickel-nitrilotriacetic acid cartridge); not shown: 10His, C-terminal, kept) DSLGREAKCYSELNGCTKIYDPVCGTDGNTYPNECVLCFENRKRQTSILIQKSGPC	Kd	0.1

Q: Please give the measured Kd for this binder: serine protease inhibitor Kazal type 1 (SPINK1), wildtype, C-terminal 10His tag (natural protein, human, UniProt P00995 24-79, looked up, expressed from the SPINK1-minigene-1 construct with its own signal peptide; Residue numbers start at the initiator methionine; source: HEK 293T, transfected, purified from conditioned medium (nickel-nitrilotriacetic acid cartridge); not shown: 10His, C-terminal, kept) DSLGREAKCYNELNGCTKIYDPVCGTDGNTYPNECVLCFENRKRQTSILIQKSGPC
Ans: 0.1

Reference source: paper PMC7949130
